In this section we review reported log10 IC50 values for a set of compounds.
# EXPERIMENTAL_TARGET: IRAK4 (Homo sapiens, UniProt Q9NWZ3)
# Construct: host or cells: human peripheral blood mononuclear cells (PBMCs)
# METHOD: IRAK4 Human PBMC TNFα Cell Based Assay (AlphaLISA)
# TEST_CONDITIONS: human PBMCs stimulated by R848 (0.5 μM), 4 h; TNFα measured; read-out: IRAK4 PBMC AlphaLISA R848 (IC50)
Field: value | Transform: log10 | Quantity: IC50 | Unit: nM

[
  {
    "COMPOUND": "CC[C@@H]1[C@H](F)C(=O)N[C@@H]1COc1ncc(C#CCN(C)C)c2cc(C(N)=O)c(OC)cc12 [Example 5]",
    "RECORDED_ENDPOINT": "log10 IC50",
    "REPORTED_VALUE": -0.15
  },
  {
    "COMPOUND": "CC[C@@H]1[C@H](F)C(=O)N[C@@H]1COc1ncc(C#Cc2ccccc2)c2cc(C(N)=O)c(OC)cc12 [Example 27]",
    "RECORDED_ENDPOINT": "log10 IC50",
    "REPORTED_VALUE": 0.72
  },
  {
    "COMPOUND": "CC[C@@H]1[C@H](F)C(=O)N[C@@H]1COc1ncc(C#CCOC)c2cc(C(N)=O)c(OC(C)C)cc12 [Example 25]",
    "RECORDED_ENDPOINT": "log10 IC50",
    "REPORTED_VALUE": 0.70
  },
  {
    "COMPOUND": "CC[C@@H]1[C@H](F)C(=O)N[C@@H]1COc1ncc(C#CC(C)(C)N(C)C)c2cc(C(N)=O)c(OC)cc12 [Example 34]",
    "RECORDED_ENDPOINT": "log10 IC50",
    "REPORTED_VALUE": 1.51
  },
  {
    "COMPOUND": "CC[C@@H]1[C@H](F)C(=O)N[C@@H]1COc1ccc(C#CC(C)(C)N(C)C)c2cc(C(N)=O)c(OC)cc12 [Example 33]",
    "RECORDED_ENDPOINT": "log10 IC50",
    "REPORTED_VALUE": 1.40
  },
  {
    "COMPOUND": "CC[C@@H]1[C@H](F)C(=O)N[C@@H]1COc1ccc(C#CC(C)(C)O)c2cc(C(N)=O)c(OC)cc12 [Example 31]",
    "RECORDED_ENDPOINT": "log10 IC50",
    "REPORTED_VALUE": 0.92
  }
]

The value of log10 IC50 measured for the compound CC[C@@H]1[C@H](F)C(=O)N[C@@H]1COc1ncc(C#Cc2cncnc2)c2cc(C(N)=O)c(OC)cc12 [Example 12] turned out to be 0.15

###

# EXPERIMENTAL_TARGET: CYP2D6 (Homo sapiens, UniProt P10635)
# Sequence (P10635 whole entry): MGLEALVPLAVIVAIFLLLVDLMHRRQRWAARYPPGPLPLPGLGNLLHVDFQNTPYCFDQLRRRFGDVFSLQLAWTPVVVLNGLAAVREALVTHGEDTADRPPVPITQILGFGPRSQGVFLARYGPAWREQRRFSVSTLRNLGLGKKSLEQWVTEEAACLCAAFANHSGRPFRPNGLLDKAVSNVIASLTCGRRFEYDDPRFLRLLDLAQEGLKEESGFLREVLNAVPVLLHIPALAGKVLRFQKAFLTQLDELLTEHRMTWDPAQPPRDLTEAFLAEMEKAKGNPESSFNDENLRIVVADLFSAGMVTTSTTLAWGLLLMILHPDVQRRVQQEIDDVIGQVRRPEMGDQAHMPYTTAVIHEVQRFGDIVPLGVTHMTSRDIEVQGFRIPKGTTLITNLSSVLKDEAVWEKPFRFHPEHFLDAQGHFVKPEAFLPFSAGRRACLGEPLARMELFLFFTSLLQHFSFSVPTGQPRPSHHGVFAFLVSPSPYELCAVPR
pIC50: −log10 of the molar value.
RECORDED_ENDPOINT: pIC50

The reported CYP2D6 (Homo sapiens, UniProt P10635) pIC50 of CC[C@@H]1[C@H](F)C(=O)N[C@@H]1COc1ncc(C#CCN(C)C)c2cc(C(N)=O)c(OC)cc12 [Example 5] is < 4.52

###

# EXPERIMENTAL_TARGET: full length human IRAK4 protein (Homo sapiens, UniProt Q9NWZ3)
# Construct: Purified full length human IRAK4 protein; purchased Signal Chem I12-10G-125
# Sequence (Q9NWZ3 1-460): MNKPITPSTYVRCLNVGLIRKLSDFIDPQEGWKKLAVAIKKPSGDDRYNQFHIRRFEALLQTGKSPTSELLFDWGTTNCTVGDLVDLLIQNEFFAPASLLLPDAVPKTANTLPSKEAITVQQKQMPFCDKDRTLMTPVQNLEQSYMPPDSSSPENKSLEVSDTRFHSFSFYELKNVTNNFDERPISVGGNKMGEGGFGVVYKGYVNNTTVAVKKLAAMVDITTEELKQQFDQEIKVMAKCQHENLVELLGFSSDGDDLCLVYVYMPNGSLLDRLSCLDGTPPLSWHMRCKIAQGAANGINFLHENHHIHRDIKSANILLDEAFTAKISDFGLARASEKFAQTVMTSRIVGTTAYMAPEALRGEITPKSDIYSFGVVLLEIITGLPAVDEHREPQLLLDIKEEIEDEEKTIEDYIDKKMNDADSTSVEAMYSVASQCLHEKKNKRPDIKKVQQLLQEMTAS
# METHOD: IRAK4 Biochemical Assay (Promega ADP-Glo IRAK4 Kinase Enzyme System)
# TEST_CONDITIONS: maximum inhibition; 3 nM enzyme, 250 μM ATP
In this section, each of the compounds is paired with its reported IRAK4 Biochemical Assay Max Inhibition (%).
Your answer is read as %, so omit the unit and give the number.

[
  {
    "SMILES_REPRESENTATION": "CC[C@@H]1[C@H](F)C(=O)N[C@@H]1COc1ncc(C#CC(C)(C)N(C)C)c2cc(C(N)=O)c(OC)cc12",
    "REPORTED_VALUE": 92.0
  },
  {
    "SMILES_REPRESENTATION": "CC[C@@H]1[C@H](F)C(=O)N[C@@H]1COc1ccc(C#CC(C)(C)N(C)C)c2cc(C(N)=O)c(OC)cc12",
    "REPORTED_VALUE": 99.0
  },
  {
    "SMILES_REPRESENTATION": "CC[C@@H]1[C@H](F)C(=O)N[C@@H]1COc1ncc(C#CC(C)(C)O)c2cc(C(N)=O)c(OC(C)C)cc12",
    "REPORTED_VALUE": 100.0
  },
  {
    "SMILES_REPRESENTATION": "CC[C@@H]1[C@H](F)C(=O)N[C@@H]1COc1ncc(C#CC(C)(C)OC)c2cc(C(N)=O)c(OC)cc12",
    "REPORTED_VALUE": 100.0
  },
  {
    "SMILES_REPRESENTATION": "CC[C@@H]1[C@H](F)C(=O)N[C@@H]1COc1ncc(C#C[C@@H](C)O)c2cc(C(N)=O)c(OC)cc12",
    "REPORTED_VALUE": 100.0
  },
  {
    "SMILES_REPRESENTATION": "CC[C@@H]1[C@H](F)C(=O)N[C@@H]1COc1ccc(C#CC(C)(C)O)c2cc(C(N)=O)c(OC)cc12",
    "REPORTED_VALUE": 95.0
  }
]

Shifting focus to the compound that follows.
Form: compound = CC[C@@H]1[C@H](F)C(=O)N[C@@H]1COc1ncc(C#Cc2cnn(C)c2)c2cc(C(N)=O)c(OC)cc12 ; IRAK4 Biochemical Assay Max Inhibition (%) = 100.0

###

Listed here: items and their measured IC50.
# EXPERIMENTAL_TARGET: IRAK4 (Homo sapiens, UniProt Q9NWZ3)
# Construct: host or cells: human peripheral blood mononuclear cells (PBMCs)
# METHOD: IRAK4 Human PBMC TNFα Cell Based Assay (AlphaLISA)
# TEST_CONDITIONS: human PBMCs stimulated by R848 (0.5 μM), 4 h; TNFα measured; read-out: IRAK4 PBMC AlphaLISA R848 (IC50)
Response body: numeric value in nM, unit text excluded.

[
  {
    "COMPOUND": "CC[C@@H]1[C@H](F)C(=O)N[C@@H]1COc1ncc(C#CC(C)(C)NC(=O)OC(C)(C)C)c2cc(C(N)=O)c(OC)cc12 [Example 1]",
    "EXPERIMENTAL_TARGET": "IRAK4 (Homo sapiens, UniProt Q9NWZ3)",
    "REPORTED_VALUE": 16
  },
  {
    "COMPOUND": "CC[C@@H]1[C@H](F)C(=O)N[C@@H]1COc1ncc(C#Cc2cnccn2)c2cc(C(N)=O)c(OC)cc12 [Example 13]",
    "EXPERIMENTAL_TARGET": "IRAK4 (Homo sapiens, UniProt Q9NWZ3)",
    "REPORTED_VALUE": 1.6
  },
  {
    "COMPOUND": "CC[C@@H]1[C@H](F)C(=O)N[C@@H]1COc1ncc(C#Cc2cnn(C)c2)c2cc(C(N)=O)c(OC)cc12 [Example 17]",
    "EXPERIMENTAL_TARGET": "IRAK4 (Homo sapiens, UniProt Q9NWZ3)",
    "REPORTED_VALUE": 2.4
  }
]

Shifting focus to the compound that follows.
IC50 recorded for this compound, CC[C@@H]1[C@H](F)C(=O)N[C@@H]1COc1ncc(C#Cc2nnn(C)n2)c2cc(C(N)=O)c(OC)cc12 [Example 21] , is 3.1

###

Reported pIC50 by item:
# EXPERIMENTAL_TARGET: IRAK4 (Homo sapiens, UniProt Q9NWZ3)
# Construct: host or cells: human peripheral blood mononuclear cells (PBMCs)
# METHOD: IRAK4 Human PBMC TNFα Cell Based Assay (AlphaLISA)
# TEST_CONDITIONS: human PBMCs stimulated by IL-1β (10 ng/ml), 24 h; TNFα measured; read-out: IRAK4 PBMC AlphaLISA IL-1β (IC50)
# pIC50 is unitless: minus log10 of the molar concentration; print number only

Example results:
[
  {
    "COMPOUND": "COc1cc2c(OC[C@@H]3CCC(=O)N3)ncc(C#Cc3ccc(C)cc3)c2cc1C(N)=O [Example 7]",
    "EXPERIMENTAL_TARGET": "IRAK4 (Homo sapiens, UniProt Q9NWZ3)",
    "pIC50": 7.05
  },
  {
    "COMPOUND": "CC[C@@H]1[C@H](F)C(=O)N[C@@H]1COc1ccc(C#CC(C)(C)N(C)C)c2cc(C(N)=O)c(OC)cc12 [Example 33]",
    "EXPERIMENTAL_TARGET": "IRAK4 (Homo sapiens, UniProt Q9NWZ3)",
    "pIC50": 7.39
  },
  {
    "COMPOUND": "CC[C@@H]1[C@H](F)C(=O)N[C@@H]1COc1ncc(C#C[C@@H](C)O)c2cc(C(N)=O)c(OC)cc12 [Example 19]",
    "EXPERIMENTAL_TARGET": "IRAK4 (Homo sapiens, UniProt Q9NWZ3)",
    "pIC50": 8.89
  },
  {
    "COMPOUND": "CC[C@@H]1[C@H](F)C(=O)N[C@@H]1COc1ncc(C#C[C@H](C)O)c2cc(C(N)=O)c(OC)cc12 [Example 18]",
    "EXPERIMENTAL_TARGET": "IRAK4 (Homo sapiens, UniProt Q9NWZ3)",
    "pIC50": 8.77
  },
  {
    "COMPOUND": "COCC#Cc1cnc(OC[C@@H]2CCC(=O)N2)c2cc(OC)c(C(N)=O)cc12 [Example 9]",
    "EXPERIMENTAL_TARGET": "IRAK4 (Homo sapiens, UniProt Q9NWZ3)",
    "pIC50": 6.96
  }
]

Sure, the documented pIC50 for CC[C@@H]1[C@H](F)C(=O)N[C@@H]1COc1ncc(C#CC(C)(C)OC)c2cc(C(N)=O)c(OC)cc12 [Example 28] is 8.04

Just for reference, patent US20220177446A1 is where these values come from.
